The entries below come with measured self-cleavage values attached.
B1: HDV Ribozyme (parent)
chain: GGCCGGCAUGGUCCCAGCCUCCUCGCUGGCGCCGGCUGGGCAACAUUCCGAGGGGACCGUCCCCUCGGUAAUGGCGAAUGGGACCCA

# Variants of: B1
# ASSAY_NAME: self-cleavage, relative activity (ratio to wild type); higher = more cleavage; co-transcriptional
EXPERIMENTAL_ENDPOINT: self-cleavage

G59U C66A :: 0.904
C63G U72G :: 0.192
C19A G59U :: 0.134
G29A A87G :: 0.135
G39U G53U :: 0.587
G1A :: 0.143
C32G C84A :: 0.0386
G28U G55C :: 0.138
C19G G68C :: 0.0875
C49U C61U :: 0.851
G29A G31U :: 0.0272
C3A C61A :: 0.596
C41U C62G :: 0.426
G1U G68A :: 0.496
C62A G76C :: 1.02
C33G A45U :: 0.185
A8G U69A :: 0.942
G5U A71U :: 0.185
C19G G38U :: 0.0852
C36U U46G :: 0.504
G2U U69A :: 0.0222
C64A U69G :: 1.15
C14G G68U :: 0.277
C4U G29A :: 0
C26G C84U :: 0.696
G5C U46C :: 0.26
G17U G81A :: 0.415
C21A C36A :: 0.117
G29A G76U :: 0.428
U27A G80A :: 0.499
U27C G34C :: 0.106
G29A G55C :: 0.0563
U65A C85U :: 0.791
C32G C66U :: 0.162
C57G A77C :: 0.237
C7A G40A :: 0.646
G1C A70G :: 0.453
G25C U65A :: 0.155
G29C C86G :: 0.133
C24U C61G :: 0.745
G1A G40U :: 0.0615
C66A A87C :: 1
C36G U46C :: 0
A43C U79A :: 0.0791
C15A U46G :: 0.383
C18U G81A :: 0.265
